Kindly state hERG current change (%, negative = inhibition) at 1uM for each of the entries shown.
TEST_TARGET: human ether-à-go-go-related gene (hERG) potassium channel (human, UniProt Q12809)
Sequence (Q12809 whole entry, looked up): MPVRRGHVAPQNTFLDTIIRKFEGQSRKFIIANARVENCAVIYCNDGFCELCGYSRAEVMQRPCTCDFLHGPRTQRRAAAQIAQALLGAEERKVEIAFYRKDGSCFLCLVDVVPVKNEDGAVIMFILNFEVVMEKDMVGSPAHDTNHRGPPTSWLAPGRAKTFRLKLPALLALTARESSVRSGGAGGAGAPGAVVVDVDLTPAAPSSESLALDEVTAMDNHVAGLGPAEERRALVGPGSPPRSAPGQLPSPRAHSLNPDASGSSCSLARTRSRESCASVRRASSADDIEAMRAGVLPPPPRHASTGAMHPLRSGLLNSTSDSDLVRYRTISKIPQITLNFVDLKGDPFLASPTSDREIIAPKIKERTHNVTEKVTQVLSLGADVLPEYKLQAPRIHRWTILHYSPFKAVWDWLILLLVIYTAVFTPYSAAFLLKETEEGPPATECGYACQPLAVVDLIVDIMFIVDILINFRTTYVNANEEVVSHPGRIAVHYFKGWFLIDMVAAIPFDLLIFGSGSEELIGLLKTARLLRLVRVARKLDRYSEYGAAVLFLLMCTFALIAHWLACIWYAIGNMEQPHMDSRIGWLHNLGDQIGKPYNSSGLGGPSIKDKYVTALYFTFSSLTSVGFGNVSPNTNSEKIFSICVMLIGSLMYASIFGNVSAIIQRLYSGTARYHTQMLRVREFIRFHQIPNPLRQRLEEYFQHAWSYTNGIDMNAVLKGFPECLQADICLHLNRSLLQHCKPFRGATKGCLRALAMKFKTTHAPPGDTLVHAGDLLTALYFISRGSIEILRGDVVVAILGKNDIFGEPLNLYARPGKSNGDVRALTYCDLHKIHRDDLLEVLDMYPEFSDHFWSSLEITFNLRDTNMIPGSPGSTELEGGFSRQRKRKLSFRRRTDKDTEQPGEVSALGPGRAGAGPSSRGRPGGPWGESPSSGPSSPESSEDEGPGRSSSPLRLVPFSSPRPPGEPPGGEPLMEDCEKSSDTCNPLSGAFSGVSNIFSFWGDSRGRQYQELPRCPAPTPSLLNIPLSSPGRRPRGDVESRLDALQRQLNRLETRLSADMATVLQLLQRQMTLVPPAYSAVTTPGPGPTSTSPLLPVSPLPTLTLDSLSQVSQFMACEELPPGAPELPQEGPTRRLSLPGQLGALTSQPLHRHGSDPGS
TEST_DESCRIPTION: primary screen, population patch clamp on CHO cells stably expressing hERG; higher = less effect of the substance
The whole screen tested about 310,000 compounds, of which about 2,200 (0.71%) showed an effect of 50% or more. The effect is printed as a negative number. Many of the other results were omitted from the sample, so strong results are more common in it than they were.
Just the number in %, nothing appended.

## Task Quick one: give measured hERG current change (%, negative = inhibition) at 1uM for CCCCCn1c(=N)n(CC(O)COc2ccccc2OC)c2ccccc21 (stereo not shown)
## Result -82.8

## Task Quick one: give measured hERG current change (%, negative = inhibition) at 1uM for Cc1cc(N/N=C/c2ccco2)c2ccccc2n1
## Result 10.7

## Task Quick one: give measured hERG current change (%, negative = inhibition) at 1uM for CCCCn1c(CCNC(=O)CC)nc2ccccc21
## Result 0.197

## Task Quick one: give measured hERG current change (%, negative = inhibition) at 1uM for COc1ccccc1N1CCc2c(C)nc3c(OC)cccc3c21
## Result -23.1

## Task Quick one: give measured hERG current change (%, negative = inhibition) at 1uM for C=CCn1c(=N)n(CC(O)COc2ccccc2OC)c2ccccc21.Cl (stereo not shown)
## Result -43.5

## Task Quick one: give measured hERG current change (%, negative = inhibition) at 1uM for Cc1ccccc1OCC(O)Cn1c(=N)n(Cc2ccccc2)c2ccccc21.Cl (stereo not shown)
## Result -48.4

## Task Quick one: give measured hERG current change (%, negative = inhibition) at 1uM for Cc1ccc2c(c1)c(C)c(C)n2CC(O)Cn1nnc2ccccc21 (stereo not shown)
## Result 12.4

## Task Quick one: give measured hERG current change (%, negative = inhibition) at 1uM for COc1ccc(N2CCc3c(C)nc4c(OC)cc(OC)cc4c32)c(OC)c1
## Result -47.6

## Task Quick one: give measured hERG current change (%, negative = inhibition) at 1uM for COc1ccc(N2CCc3c(C)nc4c(OC)cc(OC)cc4c32)cc1
## Result -52.7

## Task Quick one: give measured hERG current change (%, negative = inhibition) at 1uM for CCCCCn1c(CCCNC(=O)CC)nc2ccccc21
## Result -52.3

## Task Quick one: give measured hERG current change (%, negative = inhibition) at 1uM for CCOC(=O)c1c2ccc(OCC(=O)NN)cc2n2ccccc12
## Result 13.3

## Task Quick one: give measured hERG current change (%, negative = inhibition) at 1uM for COc1cccc2c3c(c(C)nc12)CCN3c1ccccc1
## Result -8.76

## Task Quick one: give measured hERG current change (%, negative = inhibition) at 1uM for CC(=O)c1coc2ccc(OCC(=O)O)cc12
## Result -0.294

## Task Quick one: give measured hERG current change (%, negative = inhibition) at 1uM for COc1ccccc1OCC(O)Cn1c(=N)n(Cc2ccccc2)c2ccccc21.Cl (stereo not shown)
## Result -39.6

## Task Quick one: give measured hERG current change (%, negative = inhibition) at 1uM for O=C1CCN(CCc2ccccc2)CCN1[C@H](COc1ccccc1)Cc1ccccc1
## Result -60.4

## Task Quick one: give measured hERG current change (%, negative = inhibition) at 1uM for CCCCn1c(CCCNC(=O)CC)nc2ccccc21
## Result -3.85

## Task Quick one: give measured hERG current change (%, negative = inhibition) at 1uM for COc1cc(OC)c2nc(C)c3c(c2c1)N(c1ccc(O)cc1)CC3
## Result -57.2

## Task Quick one: give measured hERG current change (%, negative = inhibition) at 1uM for CCCCCn1c(=N)n(CC(O)COc2ccccc2OC)c2ccccc21.Cl (stereo not shown)
## Result -86.3

## Task Quick one: give measured hERG current change (%, negative = inhibition) at 1uM for COc1ccc(N2CCc3c(C)nc4c(OC)cccc4c32)cc1
## Result -28.3

## Task Quick one: give measured hERG current change (%, negative = inhibition) at 1uM for O=C(NCc1ccc2c(c1)OCO2)c1cnc2ccccn2c1=O
## Result 5.17

## Task Quick one: give measured hERG current change (%, negative = inhibition) at 1uM for Cc1ccc2nc(N/N=C/c3ccco3)cc(C)c2c1
## Result -62.9

## Task Quick one: give measured hERG current change (%, negative = inhibition) at 1uM for Cn1cccc1C(=O)NC1CCCCC1
## Result 5.24
